Origin of values: PubChem BioAssay AID651814

# Target Under Test: DNA dC->dU-editing enzyme APOBEC-3F (Homo sapiens)
# Test Method Notes: qHTS for inhibitors of Vif-A3F interactions: Cherry picks;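 also: % of control where 0% means no effect; active compounds raise eYFP fluorescence by blocking Vif-driven A3F loss; nearly all actives have a fitted effect of over 70% in size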
# Test Settings: HeLa A3F-eYFP + Vif (tagged APOBEC3F with the HIV-1 protein that degrades it), eYFP fluorescence, 24 h
# Source text: The recent discovery and characterization of host restriction factors, which provide a potent defense to invading retroviruses, has provided new targets for antiviral drug development. […] In the presence of an inhibitor, it is expected that Vif will be unable to degrade A3G-eYFP and/or A3F-eYFP, resulting in an increase in yellow fluorescence. […]
Among all 2,100 compounds or so, about 590 (28%) were called active. Inconclusive results (about 42%) are left out. Some of the results follow.
Assign max response to each entry below.
Numbers only, in %.

Some solved cases for reference:
Compound	Units Label	max response
COCCCNC(=S)N/N=C/c1cccc(OC)c1O	%	-1.71
O=C(CSc1n[nH]c(-c2ccccn2)n1)Nc1ccc(Cl)cc1	%	0.972

Batch lookup, max response per entry.
1. Cc1cc(-c2nc(C)c(C(=O)NN)s2)no1
2. COc1ccccc1-c1cc(C(=O)NN)[nH]n1
3. COc1ccc(/C=C/C=C2\NC(=S)NC2=O)cc1
4. C=C1C(=O)O[C@H]2C1CC[C@@](C)(O)C13C=CC(C)(C21)C1(C3)C(=O)O[C@@H]2C3C(C)=CCC3[C@](C)(O)C[C@H](OC(C)=O)C21 (some centres not stated)
5. CC1(C)Cc2c(sc3ncnc(NNC(=S)NCc4ccccc4)c23)CO1
6. O=C1/C(=C\c2ccc(O)c(O)c2)SC(=S)N1Cc1ccccc1
7. Cc1ccc(-c2nc3ncccc3o2)cc1NC(=O)c1ccc([N+](=O)[O-])o1

1. -13.4
2. 7.62
3. -26
4. -25.3
5. -20.8
6. -22.4
7. -17.2

Batch lookup, max response per entry.
1. COc1cccc(NC(=O)c2oc3ccc(S(=O)(=O)N4CCC5(CC4)OCCO5)cc3c2C)c1
2. O=C(Cn1ncc(Cl)c(Cl)c1=O)N1CCN(S(=O)(=O)c2ccc3ccccc3c2)CC1
3. COc1ccccc1NC(=O)Cc1ccc(-c2ccccc2)cc1
4. Clc1ccsc1-c1csc(-c2cccnc2)n1
5. O=C(C(=O)N1CCN(c2ccccc2Cl)CC1)c1c[nH]c2ccccc12
6. O=C(NC(=S)Nc1ccc(-c2ccccc2)cc1)c1ccccc1
7. C=CCNC(=S)N/N=C/c1ccc(C)cc1C
8. Cc1ccc2[nH]c3c(c2c1)CCCC3NC(=O)CCl (configuration not stated)

1. -28.1
2. -29
3. 3.04
4. -27.5
5. 2.85
6. 1.35
7. -2.08
8. -15.6

Batch lookup, max response per entry.
1. COc1ccccc1C(=O)NC(=S)Nc1ccc(NC(=O)c2ccco2)cc1
2. Cc1ccc(NC(=S)N/N=C2\CCCCC2C)cc1 (configuration not stated)
3. CCOC(=O)c1cnc(-n2nc(C)cc2C)nc1NNc1nc(-c2ccccc2)cc(-c2ccccc2)n1
4. C/C(CCc1ccc2c(c1)OCO2)=N\NC(=S)NC(C)C
5. N#C/C(=C/c1ccc(-c2ccc([N+](=O)[O-])cc2)o1)C(=O)Nc1nc(-c2cccs2)cs1

-12.8
0.346
6.49
-2.82
-8.39
